Values were extracted from PubChem BioAssay (NCI).

# System: A498 renal
# test details: NCI tumour cell line growth inhibition, 48 h; in the data active = GI50 below about 0.43 µM; inactive = the rest
Outcome (select one): Y (active), N (inactive)

Below, 2 molecules whose answers are already recorded.
Inquiry: Status in this test for "Cc1[nH]nc(C(F)(F)F)c1Cc1sc2c(c1C(=O)N1C[C@](C)(O)CO1)c(=O)n(C)c(=O)n2C(C)C" ?
Reply text: N

Inquiry: Status in this test for CC1=CC2(C)/C=C(C)/C=C\CC(O)/C=C3/C=CC(=C4C(=O)OC2(CC1C)C4=O)OC3 (centres undefined) ?
Reply text: N

More entries:
Inquiry: Status in this test for "CCC[CH2][Sn]1([CH2]CCC)[O]C(=O)c2cccc([N+](=O)[O-])c2C(=O)[O]1" ?
Reply text: Y

Inquiry: Status in this test for CCCCCCCCN(CCCCCCCC)CC(O)c1cc(-c2ccccc2)nc2ccc(OC)cc12 (centres undefined) ?
Reply text: N

Inquiry: Status in this test for "O=C(Nc1ccc(Cl)c(Cl)c1)c1ccc(NC2=C(Cl)C(=O)N(Cc3ccccc3)C2=O)cc1" ?
Reply text: N
